Assignment: determine reported pIC50 for the given molecules.
- system-tested: human PDHK2 (hPDHK2) (Homo sapiens (Human))
- test-method-notes: Inhibitory action of PDHK activity in vitro (kinase reaction, residual PDH activity measured)
- Format: biochemical
- assay-context: read-out: PDHK inhibitory activity IC50
Numbers only, as −log10 of the molar value.

As a guide, the following entries are already answered.
> print(dat)
                                   molecule  result.type  observed.value
1  Oc1ccc2c(c1)-c1ccccc1C2(O)C(F)(F)F (centres unmarked) [compound 62]        pIC50            4.80
2  O=C(COc1cc(-c2cnn(CCO)c2)c2c(c1)C(O)(C(F)(F)F)c1ccccc1-2)N1CC(O)C1 (centres unmarked) [compound 497]        pIC50            7.51

Fill in pIC50 for each of the 2 molecules listed.
1. OC1(C(F)(F)F)c2ccccc2-c2cc(F)ccc21 (centres unmarked) [compound 12]
2. CCCc1cc(-c2cnn(C(CO)CO)c2)c2c(c1)C(O)(C(F)(F)F)c1ccccc1-2 (centres unmarked) [compound 652]

[5.26, 7.44]

###

- system-tested: UniProt Q15119
- test-method-notes: Inhibitory action of PDHK activity in vitro (kinase reaction, residual PDH activity measured)
- Format: biochemical
- assay-context: read-out: PDHK inhibitory activity IC50
Assignment: determine reported pIC50 for the given molecules.
Numbers only, as −log10 of the molar value.

As a guide, the following entries are already answered.
> print(dat)
                                   molecule  result.type  observed.value
1  O=C(O)C1CCN(c2ccc3c(c2)C(O)(C(F)(F)F)c2ccccc2-3)CC1 (stereo not shown)        pIC50            5.27
2  O=C(c1cc(Cl)c2c(c1)C(O)(C(F)(F)F)c1ccccc1-2)N1CC(O)C1 (stereo not shown)        pIC50            6.75
3  OCc1cc(-c2cnn(CC3CCCCC3)c2)cc2c1-c1ccccc1C2(O)C(F)(F)F (single isomer, unassigned)        pIC50            7.77
4  COc1cc(C(N)=O)c2c(c1)C(O)(C(F)(F)F)c1ccccc1-2 (stereo not shown)        pIC50            6.17
5  COC(=O)C1CN(C(=O)c2ccc3c(c2)C(O)(C(F)(F)F)c2ccccc2-3)C1 (stereo not shown)        pIC50            6.76
6  OC1(C(F)(F)F)c2ccccc2-c2ccc(F)cc21 (stereo not shown)        pIC50            5.64
7  Cc1ccc2c(c1)-c1ccccc1C2(O)C(F)(F)F (stereo not shown)        pIC50            4.51
8  OCc1ccc(-c2ccc3c(c2)C(O)(C(F)(F)F)c2ccccc2-3)cc1 (stereo not shown)        pIC50            6.43

Fill in pIC50 for each of the 2 molecules listed.
1. OC1(C(F)(F)F)c2ccccc2-c2ccc(N3CCOCC3)cc21 (stereo not shown)
2. CNC(=O)COc1ccc2c(c1)C(O)(C(F)(F)F)c1ccccc1-2 (stereo not shown)

5.68
6.19

Fill in pIC50 for each of the 8 molecules listed.
1. CCCCN(C)C(=O)c1ccc2c(c1)C(O)(C(F)(F)F)c1ccccc1-2 (stereo not shown)
2. OC1(C(F)(F)F)c2ccccc2-c2c(Cl)cc(Cl)cc21 (stereo not shown)
3. CC(C)(O)Cn1cc(-c2cc(CO)c3c(c2)C(O)(C(F)(F)F)c2ccccc2-3)cn1 (stereo not shown)
4. O=C(c1cc(-c2cnn(CCO)c2)c2c(c1)C(O)(C(F)(F)F)c1ccccc1-2)N1CCCC1 (single isomer, unassigned) [compound 657]
5. CN(C)C(=O)COc1ccc2c(c1)C(O)(C(F)(F)F)c1ccccc1-2 (stereo not shown)
6. COC(=O)c1cc(Br)c2c(c1)C(O)(C(F)(F)F)c1ccccc1-2 (stereo not shown) [compound 472]
7. Cc1cc(C(=O)N2CCC2)cc2c1-c1ccccc1C2(O)C(F)(F)F (stereo not shown) [compound 91]
8. COc1cccc2c1-c1ccccc1C2(O)C(F)(F)F (stereo not shown)

1. 5.57
2. 6.52
3. 7.23
4. 7.70
5. 6.10
6. 6.74
7. 7.14
8. 5.19

Fill in pIC50 for each of the 3 molecules listed.
1. CNC(=O)C1CCCN1C(=O)c1ccc2c(c1)C(O)(C(F)(F)F)c1ccccc1-2 (stereo not shown)
2. Cc1cccc2c1-c1ccccc1C2(O)C(F)(F)F (stereo not shown)
3. O=C(O)CCCOc1cc(-c2cnco2)c2c(c1)C(O)(C(F)(F)F)c1ccccc1-2 (stereo not shown)

5.04
5.64
7.12

Fill in pIC50 for each of the 8 molecules listed.
1. CN(CCCCO)C(=O)c1ccc2c(c1)C(O)(C(F)(F)F)c1ccccc1-2 (stereo not shown)
2. CC(C)(C)C(=O)N1CCN(c2cc(Cl)c3c(c2)C(O)(C(F)(F)F)c2ccccc2-3)CC1 (stereo not shown)
3. CN(CC(=O)O)C(=O)COc1ccc2c(c1)C(O)(C(F)(F)F)c1ccccc1-2 (stereo not shown)
4. Cc1cc(-c2cnn(CCCc3nn[nH]n3)c2)c2c(c1)C(O)(C(F)(F)F)c1ccccc1-2 (single isomer, unassigned)
5. O=C(c1cc(-c2cncnc2)c2c(c1)C(O)(C(F)(F)F)c1ccccc1-2)N1CCC1 (stereo not shown)
6. CC(=O)N(C)c1ccc2c(c1)C(O)(C(F)(F)F)c1ccccc1-2 (stereo not shown)
7. Cc1nc(-c2cccc3c2-c2ccccc2C3(O)C(F)(F)F)no1 (stereo not shown)
8. OC1(C(F)(F)F)c2cc(Cl)ccc2-c2ccc(Cl)cc21

1. 5.51
2. 7.25
3. 5.22
4. 7.52
5. 7.09
6. 5.18
7. 5.13
8. 4.25

###

- system-tested: human PDHK2 (hPDHK2) (Homo sapiens (Human), UniProt Q15119)
- test-method-notes: Inhibitory action of PDHK activity in vitro (kinase reaction, residual PDH activity measured)
- Type: biochemical
- assay-context: read-out: PDHK inhibitory activity IC50
result-type: pIC50
Answers are plain numbers, as −log10 of the molar value.

As a guide, the following entries are already answered.
> print(dat)
                                   compound  observed.value
1  OCCn1cc(-c2ccc3c(c2)C(O)(C(F)(F)F)c2cccc(CO)c2-3)cn1 (stereo not shown)            5.23
2  CN(C)C(=O)Cn1cc(-c2cccc3c2-c2ccccc2C3(O)C(F)(F)F)cn1 (stereo not shown)            6.92
3  OCCCCOc1ccc2c(c1)C(O)(C(F)(F)F)c1ccccc1-2 (stereo not shown)            6.27
4  OCCCOc1ccc2c(c1)C(O)(C(F)(F)F)c1ccccc1-2 (stereo not shown)            5.93

Fill in pIC50 for each of the 7 compounds listed.
1. N#Cc1ccc(-c2ccc3c(c2)C(O)(C(F)(F)F)c2ccccc2-3)cc1 (stereo not shown)
2. Cn1cc(-c2cc(CO)c3c(c2)C(O)(C(F)(F)F)c2ccccc2-3)cn1 (stereo not shown)
3. O=C1CCCN1c1ccc2c(c1)C(O)(C(F)(F)F)c1ccccc1-2 (stereo not shown)
4. O=C(c1ccc2c(c1)C(O)(C(F)(F)F)c1ccccc1-2)N1CCCC1CO (stereo not shown)
5. OCCCCOc1cc(-c2cncnc2)c2c(c1)C(O)(C(F)(F)F)c1ccccc1-2 (stereo not shown)
6. CC(=O)N(C)CCOc1ccc2c(c1)C(O)(C(F)(F)F)c1ccccc1-2 (stereo not shown)
7. CN(CCO)C(=O)c1cc(-c2cnn(C)c2)c2c(c1)C(O)(C(F)(F)F)c1ccccc1-2 (stereo not shown)

[6.67, 6.96, 5.76, 5.26, 7.60, 6.52, 6.70]

Fill in pIC50 for each of the 2 compounds listed.
1. O=C(c1ccc2c(c1)C(O)(C(F)(F)F)c1ccccc1-2)N1CC(C(=O)N2CCC(O)C2)C1 (stereo not shown)
2. CC(=O)Nc1ccc(-c2ccc3c(c2)C(O)(C(F)(F)F)c2ccccc2-3)cc1 (stereo not shown)

6.30
6.53

Fill in pIC50 for each of the 4 compounds listed.
1. COC(=O)N1CCN(c2ccc3c(c2)C(O)(C(F)(F)F)c2ccccc2-3)CC1 (stereo not shown)
2. CC(CO)(CO)n1cc(-c2cc(F)cc3c2-c2ccccc2C3(O)C(F)(F)F)cn1 (single isomer, unassigned; (+))
3. NC(=O)c1cccc(-c2ccc3c(c2)C(O)(C(F)(F)F)c2ccccc2-3)c1 (stereo not shown)
4. CNC(=O)CCCCOc1ccc2c(c1)C(O)(C(F)(F)F)c1ccccc1-2 (stereo not shown)

[5.88, 7.66, 6.33, 6.25]

Fill in pIC50 for each of the 4 compounds listed.
1. CCc1cc(C(N)=O)c2c(c1)C(O)(C(F)(F)F)c1ccccc1-2 (stereo not shown)
2. O=C(c1ccc2c(c1)C(O)(C(F)(F)F)c1ccccc1-2)N1CC(CO)C1 (stereo not shown)
3. O=C(COc1ccc2c(c1)C(O)(C(F)(F)F)c1ccccc1-2)N1CCOCC1 (stereo not shown)
4. CCOC(=O)c1cccc2c1-c1ccccc1C2(O)C(F)(F)F (stereo not shown)

1. 6.25
2. 6.17
3. 5.97
4. 6.19

Fill in pIC50 for each of the 5 compounds listed.
1. Nc1ccc2c(c1)-c1ccccc1C2(O)C(F)(F)F (stereo not shown)
2. OC1(C(F)(F)F)c2ccccc2-c2c(-c3nnco3)cccc21 (stereo not shown)
3. Oc1ccc(-c2ccc3c(c2)C(O)(C(F)(F)F)c2ccccc2-3)cc1 (stereo not shown)
4. O=C1OCCN1CCOc1ccc2c(c1)C(O)(C(F)(F)F)c1ccccc1-2 (stereo not shown)
5. CN(CCOc1cc(-c2cnn(C)c2)c2c(c1)C(O)(C(F)(F)F)c1ccccc1-2)C(=O)C(C)(C)CO (stereo not shown)

[4.75, 5.62, 6.15, 6.73, 7.66]

Fill in pIC50 for each of the 4 compounds listed.
1. OC1(C(F)(F)F)c2ccccc2-c2c(-c3cnn(C45CC6CC(CC(C6)C4)C5)c3)cccc21 (stereo not shown)
2. O=C1CCC(COc2ccc3c(c2)C(O)(C(F)(F)F)c2ccccc2-3)N1CCCO (stereo not shown)
3. O=C(COc1ccc2c(c1)C(O)(C(F)(F)F)c1ccccc1-2)N1CCC(CO)CC1 (stereo not shown)
4. OCc1cc(Cl)cc2c1-c1ccccc1C2(O)C(F)(F)F (stereo not shown)

7.21
6.63
6.37
6.29

# return recorded pIC50 for entry OC1(C(F)(F)F)c2ccccc2-c2c(-c3cncnc3)cc(Cl)cc21 (stereo not shown) 7.10

# credit: patent US8871934B2
